target: T1, RSV F protein (C-terminal truncated F protein secreted from a recombinant baculovirus) (respiratory syncytial virus (RSV), UniProt P03420 26-524); assay: ELISA titration of antibody on 500 ng RSV F antigen; qualitative score from titration curves
T1 construct: also called F antigen; RSV F antigen
T1 sequence (P03420 26-109, chain 1 of 2): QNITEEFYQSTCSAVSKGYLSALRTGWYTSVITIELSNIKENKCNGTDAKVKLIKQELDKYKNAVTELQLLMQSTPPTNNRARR
T1 sequence (P03420 137-524, chain 2 of 2): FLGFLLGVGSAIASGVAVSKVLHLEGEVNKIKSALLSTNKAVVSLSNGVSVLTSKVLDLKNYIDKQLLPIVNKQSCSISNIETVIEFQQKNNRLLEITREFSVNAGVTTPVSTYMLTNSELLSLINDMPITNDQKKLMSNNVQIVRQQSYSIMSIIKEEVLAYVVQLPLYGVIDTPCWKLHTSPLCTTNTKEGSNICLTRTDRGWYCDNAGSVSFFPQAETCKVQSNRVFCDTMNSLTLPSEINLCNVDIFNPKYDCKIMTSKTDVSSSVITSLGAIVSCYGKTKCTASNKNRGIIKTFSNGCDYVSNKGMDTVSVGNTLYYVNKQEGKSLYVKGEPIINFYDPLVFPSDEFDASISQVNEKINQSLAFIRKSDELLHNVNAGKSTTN
Readout: Ag Score (arbitrary score 0-4)
Answers are plain numbers, in arbitrary score 0-4.

clone 2 (AFFG) (Fab, V domains shown) VH: QVTLRESGPALVKPTQTLTLTCTFSGFSLSTAGMSVGWIRQPPGKALEWLADIWWDDKKDYNPSLKSRLTISKDTSKNQVVLKVTNMDPADTATYYCARSMITNFYFDVWGQGTTVTVSS VL: DIQMTQSPSTLSASVGDRVTITCSASSSVGYMHWYQQKPGKAPKLLIYDTFKLASGVPSRFSGSGSGTEFTLTISSLQPDDFATYYCFQGSGYPFTFGGGTKVEIK ... 4
clone 19 (SFSW) (antibody, V domains shown) VH: QVTLRESGPALVKPTQTLTLTCTFSGFSLSTSGMSVGWIRQPPGKALEWLADIWWDDKKDYNPSLKSRLTISKDTSKNQVVLKVTNMDPADTATYYCARSMITNFYFDVWGQGTTVTVSS VL: DIQMTQSPSTLSASVGDRVTITCSASSSVGYMHWYQQKPGKAPKLLIYDTSKLASGVPSRFSGSGSGTEFTLTISSLQPDDFATYYCFQGSWYPFTFGGGTKVEIK ... 2
clone 21 (SWYF) (antibody, V domains shown) VH: QVTLRESGPALVKPTQTLTLTCTFSGFSLSTSGMSVGWIRQPPGKALEWLADIWWDDKKDYNPSLKSRLTISKDTSKNQVVLKVTNMDPADTATYYCARSMITNWYFDVWGQGTTVTVSS VL: DIQMTQSPSTLSASVGDRVTITCSASSSVGYMHWYQQKPGKAPKLLIYDTYKLASGVPSRFSGSGSGTEFTLTISSLQPDDFATYYCFQGSFYPFTFGGGTKVEIK ... 2
clone 15 (AFSG) (antibody, V domains shown, also called 15 (n = 2)) VH: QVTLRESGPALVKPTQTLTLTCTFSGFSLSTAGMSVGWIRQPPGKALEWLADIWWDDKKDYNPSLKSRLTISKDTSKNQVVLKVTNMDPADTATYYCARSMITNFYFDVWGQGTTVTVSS VL: DIQMTQSPSTLSASVGDRVTITCSASSSVGYMHWYQQKPGKAPKLLIYDTSKLASGVPSRFSGSGSGTEFTLTISSLQPDDFATYYCFQGSGYPFTFGGGTKVEIK ... 2.5
clone 10 (PFSF) (antibody, V domains shown) VH: QVTLRESGPALVKPTQTLTLTCTFSGFSLSTPGMSVGWIRQPPGKALEWLADIWWDDKKDYNPSLKSRLTISKDTSKNQVVLKVTNMDPADTATYYCARSMITNFYFDVWGQGTTVTVSS VL: DIQMTQSPSTLSASVGDRVTITCSASSSVGYMHWYQQKPGKAPKLLIYDTSKLASGVPSRFSGSGSGTEFTLTISSLQPDDFATYYCFQGSFYPFTFGGGTKVEIK ... 3
clone 14 (SFFW) (antibody, V domains shown) VH: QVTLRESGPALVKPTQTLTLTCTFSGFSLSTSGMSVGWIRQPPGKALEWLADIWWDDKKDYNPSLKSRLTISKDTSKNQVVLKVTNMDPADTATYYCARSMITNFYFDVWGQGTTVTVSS VL: DIQMTQSPSTLSASVGDRVTITCSASSSVGYMHWYQQKPGKAPKLLIYDTFKLASGVPSRFSGSGSGTEFTLTISSLQPDDFATYYCFQGSWYPFTFGGGTKVEIK ... 2.5
clone 3 (PFFF) (Fab, V domains shown, also called 3 (n = 3)) VH: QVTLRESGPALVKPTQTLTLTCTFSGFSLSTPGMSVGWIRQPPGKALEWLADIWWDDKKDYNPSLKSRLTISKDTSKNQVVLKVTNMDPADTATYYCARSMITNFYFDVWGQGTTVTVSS VL: DIQMTQSPSTLSASVGDRVTITCSASSSVGYMHWYQQKPGKAPKLLIYDTFKLASGVPSRFSGSGSGTEFTLTISSLQPDDFATYYCFQGSFYPFTFGGGTKVEIK ... 4
clone 11 (PWFW) (antibody, V domains shown) VH: QVTLRESGPALVKPTQTLTLTCTFSGFSLSTPGMSVGWIRQPPGKALEWLADIWWDDKKDYNPSLKSRLTISKDTSKNQVVLKVTNMDPADTATYYCARSMITNWYFDVWGQGTTVTVSS VL: DIQMTQSPSTLSASVGDRVTITCSASSSVGYMHWYQQKPGKAPKLLIYDTFKLASGVPSRFSGSGSGTEFTLTISSLQPDDFATYYCFQGSWYPFTFGGGTKVEIK ... 3
clone 6 (PFYF) (antibody, V domains shown) VH: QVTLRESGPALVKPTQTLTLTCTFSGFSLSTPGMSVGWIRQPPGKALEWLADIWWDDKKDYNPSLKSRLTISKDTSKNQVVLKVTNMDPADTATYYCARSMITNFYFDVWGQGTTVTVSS VL: DIQMTQSPSTLSASVGDRVTITCSASSSVGYMHWYQQKPGKAPKLLIYDTYKLASGVPSRFSGSGSGTEFTLTISSLQPDDFATYYCFQGSFYPFTFGGGTKVEIK ... 3.5

Ask | Tell me its Ag Score given clone 20 (SFSF) (antibody, V domains shown) VH: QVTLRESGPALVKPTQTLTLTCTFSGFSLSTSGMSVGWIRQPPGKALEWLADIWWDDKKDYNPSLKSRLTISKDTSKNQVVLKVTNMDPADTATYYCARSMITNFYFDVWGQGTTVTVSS VL: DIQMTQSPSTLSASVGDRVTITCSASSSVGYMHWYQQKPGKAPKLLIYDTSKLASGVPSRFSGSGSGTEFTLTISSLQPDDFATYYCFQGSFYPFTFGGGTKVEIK as the entry.
Reply | 2
